Experiment: GDH-TPI coupling enzyme inhibitors, primary screen, artefact control for M. tuberculosis FBA inhibitor project, biochemical, absorbance, full deck (AID 588335);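 also: 0% = DMSO wells and 100% = wells lacking the enzyme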
Details: GDH-TPI coupled enzyme counterscreen, NADH absorbance; at 4.8 µM; stronger effect = higher value
Among all 360,000 compounds or so, about 4,500 (1.2%) were called active. The entries come from a sample that favours actives as a whole.
Attribute: inhibition
METRIC NAME: inhibition (%)

> print(dat)
                                    molecule  endpoint.result
 1  OC(c1nnc(-c2ccccc2)o1)c1cccs1 (centres undefined)            -12.3
 2           COc1ccc(/C=C2\N=C3CCCN3C2=O)cc1             45.7
 3  O=C(Nc1ccc(OC(F)(F)F)cc1)c1ccc2c(c1)no[n+]2[O-]             4.41
 4  CC1(Oc2ccc(Cl)cc2)CCN(Cc2csc3ccccc23)C1 (centres undefined)            -8.04
 5  CCn1ccnc1CNC(=O)CC1C(=O)NCCN1CCCc1ccccc1 (centres undefined)             1.04
 6  COc1cc(OC)cc(-c2c(-c3cccs3)c3cc(-c4ccc(OC)nc4)ccc3n2C)c1             23.8
 7  CC1CCCCC1NC(=O)COC(=O)Cc1ccc(Cl)cc1 (centres undefined)             3.03
 8           COC(=O)c1ccc(Nc2ncnc3sccc23)cc1             8.09
 9     O=C(COc1ccc2oc3c(c2c1)CCCC3)Nc1ccccn1            -3.77
10  CCC(C)(C)c1ccc(OCC(=O)N(C)C)c(C(C)(C)CC)c1             1.89
11  O=C(Nc1ccc(OCC(=O)N2CCOCC2)cc1)c1cc(F)c(F)cc1Cl             6.18
12  C/C(=N\Nc1cccc(C(=O)O)c1)c1ccc2c(c1)Nc1ccccc1S2             7.28
13  COc1ccccc1C(=O)NC(=S)Nc1ccc(N2CCOCC2)cc1             19.6
14          Cc1c(C=O)c2ccccn2c1C(=O)c1ccncc1             23.7
15  O=C(CN1CCOCC1)N1CCCc2c1c(=O)oc1ccc(OCc3ccccc3)cc21             31.5
16  CCOc1cc(C)ccc1OCc1nnc(SCC(=O)Nc2cccc(C(=O)O)c2)n1-c1ccccc1             5.71
17  Nc1ccc(-c2nnc(-c3ccc(-c4ccccc4)cc3)o2)cc1             49.1
18  Cn1cccc1/C=N/NC(=O)c1ccc(OC(F)(F)C(F)F)cc1             35.9
19  CCN(CC)C(=O)C1CCCN(Cc2cccc(Cl)c2)C1 (centres undefined)             11.3
20  Cc1cc(C)cc(C(=O)NCC(=O)OCC(=O)N2CCCCC2)c1            -3.76
21  COc1ccc(C=C2CCC3C(CCCC34OCCO4)C2=O)cc1 (centres undefined)             25.5
22  O=C(NN=Cc1ccc(N2CCOCC2)cc1)c1cc2ccccc2cc1O             50.6
23     Cc1ccc(/C=N/NC(=O)Cn2nc(C)c(Br)c2C)o1             5.47
24  NC(=O)C1CCN(C(=O)c2cc(S(=O)(=O)N3CCN(c4ccccc4)CC3)ccc2Cl)CC1                0
25           Cn1nccc1/C=N\NC(=O)c1ccc(Cl)cc1            -10.2
26  Cn1c(SCC(=O)Nc2ccc(N3CCOCC3)cc2)nnc1C(F)(F)F             2.16
27  CN(C(=O)c1cccc(NC(=O)Cc2ccc([N+](=O)[O-])cc2)c1)C1CCC1             6.17
28      Cc1ccc(/C=N/NC(=O)c2cc3ccccc3cc2O)o1             34.5
29  O=C(O)c1ccc(NN=CC2=C(N3CCOCC3)/C(=C/c3ccccc3)CC2)cc1             22.9
30  CCOC(=O)N1CCN(C(=O)c2ccc3nc4cc(Cl)ccc4c(=O)n3c2)CC1            -6.67
31  CCOC(=O)c1c(C)n(C)c2ccc(OC)c(NS(=O)(=O)CC)c12             2.65
32  CCCc1ccc(-c2c(C)sc(NC(=O)c3ccnn3C)c2C#N)cc1             17.4
33  CC(Oc1cc2oc(=O)c3c(c2cc1Cl)CCCC3)C(=O)NCc1ccncc1 (centres undefined)             30.8
34  CCOC(=O)c1ccc(N/C(=N/S(=O)(=O)c2ccccc2)c2ccccc2)cc1             10.9
35  O=C(Cn1nnc(-c2ccccc2)n1)N/N=C/c1ccc(-c2ccc(Cl)cc2)o1             11.2
36  COc1cc(OC)cc(-c2c(-c3ccc(F)cc3)c3cc(-c4ccc5cc[nH]c5c4)ccc3n2C)c1             43.2
37   Cc1ccc(/C=N/NC(=O)Cn2ccc(C(F)(F)F)n2)o1             7.37
38  Cc1cc(C)n(-c2nnc(C)n2NC(=O)c2cccc(Cl)c2)n1            -3.66
39  COc1ccc(CCNS(=O)(=O)c2cc3c(cc2C)NC(=O)CO3)cc1OC            -4.31
40  COc1ccc(OC)c(/C=N/NC(=O)CSc2nnc(C)n2-c2ccccc2)c1             30.2
41  CN1C(c2ccc(F)cc2)=CS/C1=C(/C#N)c1nnc2n1-c1ccccc1SC2             18.8
42  O=C(N/N=C\c1ccc(-c2ccc(Cl)c(Cl)c2)o1)C(=O)N1CCCC1             14.3
43  Cn1c(Cn2nnc3ccccc32)nnc1SCC(=O)c1ccccc1F            -1.22
44  CCOC(=O)C1(CCOc2ccccc2)CCN(C(=O)c2cncs2)CC1             3.14

Sourced from PubChem BioAssay AID588335
